The reported measurements were obtained from patent US11472788B2.

compounds and their reported EC50
Target system: cellular IDO1 in HeLa cells (Homo sapiens (Human), UniProt P14902)
Sequence (P14902 whole entry): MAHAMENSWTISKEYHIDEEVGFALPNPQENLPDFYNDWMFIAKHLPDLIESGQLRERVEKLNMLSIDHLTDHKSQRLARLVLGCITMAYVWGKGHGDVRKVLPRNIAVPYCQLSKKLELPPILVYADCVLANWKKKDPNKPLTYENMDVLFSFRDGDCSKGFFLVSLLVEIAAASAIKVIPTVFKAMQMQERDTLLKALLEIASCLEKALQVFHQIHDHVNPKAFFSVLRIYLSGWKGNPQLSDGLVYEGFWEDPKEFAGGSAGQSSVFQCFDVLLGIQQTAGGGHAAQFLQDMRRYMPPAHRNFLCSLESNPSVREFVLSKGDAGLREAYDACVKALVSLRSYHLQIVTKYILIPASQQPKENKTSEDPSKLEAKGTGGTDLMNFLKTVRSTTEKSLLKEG
Test summary: HeLa Cell-Based IDO1 Kyn (Kynurenine) Production Assay
Run parameters: IFN-γ induced IDO1, 48 hours incubation, Kyn absorbance at 480 nm
Observed property: EC50

Compound | Observed property | Result
CC(=O)c1ccc2nc([C@H](C)[C@H]3CC[C@@H](c4ccnc5ccc(F)cc54)CC3)[nH]c2c1 | EC50 | 2.9 nM
Cc1noc(-c2ccc3[nH]c(C(C)[C@H]4CC[C@@H](c5ccnc6ccc(F)cc65)CC4)nc3c2)n1 (stereo partly shown) | EC50 | 1.2 nM
Fc1ccc2nccc(C3CCC(Cc4nc5cc(Cl)c(Cl)cc5[nH]4)CC3)c2c1 (stereo not shown) | EC50 | 11 nM
CCOC(=O)c1ccc2[nH]c([C@H](C)[C@H]3CC[C@@H](c4ccnc5ccc(F)cc54)CC3)nc2c1 | EC50 | 0.58 nM
Clc1ccc2[nH]c(CC3CCN(c4ccnc5ccccc45)CC3)nc2c1 | EC50 | 852 nM
CON(C)C(=O)c1ccc2nc([C@H](C)[C@H]3CC[C@@H](c4ccnc5ccc(F)cc54)CC3)[nH]c2c1 | EC50 | 26.5 nM
COC(=O)c1c(F)ccc2[nH]c([C@H](C)[C@H]3CC[C@@H](c4ccnc5ccc(F)cc54)CC3)nc12 | EC50 | 21.9 nM
